Please respond with reported apparent KD of MS2 coat protein for every item in the list.
Tested on: MS2 coat protein
method-notes: apparent KD of MS2 coat protein; designed switch direction (-1 OFF switch, 1 ON switch): -1; higher = weaker reporter binding
details: input ligand: microRNA oligo, concentration not stated
API: value field is a number in µM; no unit string.

Give recorded apparent KD of MS2 coat protein. UACGAAGAGUGAGGAUAUGUGCGACAAAGUUGCACAGAAGGCACAUGAGGAUCACCCAUGUGAGCUAGGUCGAAAGACCUAGCG [Omei Exc(NG)1 Av6] (Eterna round: R96, puzzle: Exclusion NG 1)
0.0136

Give recorded apparent KD of MS2 coat protein. ACAUGAGGAUCACCCAUGUACACGUAAUGGCUCAUGUAGAGUCAGGAUAUGCGUGGCGAACUCGCGCAGAAGGGACAAGACUGG [Deportation 21 - Jieux - Exclusion NG 3] (Eterna round: R96, puzzle: Exclusion NG 3)
0.0186

Give recorded apparent KD of MS2 coat protein. AAAAAGGCAGGAUAUACGAGUCAAAGAAAAGACAAAAGGAGACAUGAGGAUCACCCAUGUAGAAGGGCCAAAAA [Fiskers exclusion D2 62% 5] (Eterna round: R96, puzzle: Exclusion 2)
0.0206

Give recorded apparent KD of MS2 coat protein. GUAAUGCUGCGAGGAUAUACAUGAGGAUCACCCAUGUGGAUGUCUGAGGCUUUGCCUCAGACGAUGUAGAAGGCGCAGUAAAAU [Mat - Exclusion NG 2 - Mod of JL - D53] (Eterna round: R96, puzzle: Exclusion NG 2)
0.0115

----------
Tested on: K4 kissing-loop RNA reporter;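 also: bound reporter read as fluorescence of individual clusters on recovered sequencing chips by microscopy, with normalized cluster intensities fitted with a binding model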
method-notes: apparent KD of K4 kissing-loop reporter; higher = weaker reporter binding
details: Eterna round: R107; input ligand: none
Give t when the value for apparent KD of K4 kissing-loop reporter is at least 300 nM. Give f when it is less.

Given the entry CGAGUGAUGUUCGAAGAGUUGUUAAGCGAUACCAGCUAGGAAACUGGCCCUUGGCAGCGUAAUAAGUUAAUAAAUAAAUGAUCAC [whbob_Ex_Theo_A_th64] , answer whether its apparent KD of K4 kissing-loop reporter meets or surpasses 300 nM.
t

Given the entry UGGCGUAGAACCGCCGAAUCGCUGUGAGAAGGAGCGGUAAAAUUGCCAGGUAGGUCGCUCACAGCCUCACAGUGAUGUUGUGGGA [Cequralaza] , answer whether its apparent KD of K4 kissing-loop reporter meets or surpasses 300 nM.
f

Given the entry GGUAGCAUGGCGGCCGCCACUGUUCGUGUUGCUAGCAGAUUCCAGUGAUGUUGGAAGCCUAGGUACAGGACCGGGCCAUGCUACC , answer whether its apparent KD of K4 kissing-loop reporter meets or surpasses 300 nM.
f

Given the entry UUUUUGGAGAAUUAUAGUGAUGUUAUGAAGGAGGAUAUCUGGAGAUGGAGAAGGCCUAGUGGCUCAGCCCUCGAGGGUGGGUGGG [ExFMNA.aC] , answer whether its apparent KD of K4 kissing-loop reporter meets or surpasses 300 nM.
t

Given the entry CCAUUCAUCAGAAGGAGCGUCAAGUGAUGCUAUCCAGUGAUGUUGGAUAGCACGGAACAGUGACAGGUAGGUCGCUGAUGAGAGC [Arg B SS t8] , answer whether its apparent KD of K4 kissing-loop reporter meets or surpasses 300 nM.
f

----------
Please respond with reported apparent KD of MS2 coat protein for every item in the list.
Test system: MS2 coat protein
method-notes: apparent KD of MS2 coat protein; designed switch direction (-1 OFF switch, 1 ON switch): -1; higher = weaker reporter binding
details: input ligand: FMN 200 uM
API: value field is a number in nM; no unit string.

Give recorded apparent KD of MS2 coat protein. UUUAUUAAUUAAUAUAAUAAGAUCACAUGAGGAUCACCCAUGUAGGAUAUCAGCUCGUUUAGAGCUGAGAAGGACAUAAUUAUA [ExNG3/1-B2] (Eterna round: R96, puzzle: Exclusion NG 3)
135

Give recorded apparent KD of MS2 coat protein. GCACGGAGUGUAGGAUAUCUGUGCGAUUAGCUCAGAGAAGGACACAUGAGGAUCACCCAUGUGUAACUCAACAUUAAUCCGUGC [Eli exng1 - 074] (Eterna round: R96, puzzle: Exclusion NG 1)
9.63

Give recorded apparent KD of MS2 coat protein. GGAUCACAUGUUAGGAUAUGCAGGUCCUUGGAUCUGCAGAAGGGACAUGAGGAUCACCCAUGUCAUGAAGAUCC [Mat - Exclusion 4 - Eli Mod - D52] (Eterna round: R97, puzzle: Brourd's mod of Exclusion 4)
43.4

Give recorded apparent KD of MS2 coat protein. ACACUGCUAGGAUAUGCAGCGGCAUCAGCCGAAAGUCCCUCACAUGAGGAUCACCCAUGUAGAAGGAGCAAGAC [Eternabot (Original) Solution 13] (Eterna round: R97, puzzle: Exclusion 2)
26.9

Give recorded apparent KD of MS2 coat protein. AGCUAGUCAGGAUAUUCUAAUAAUUACAUGAGGAUCACCCAUGUGAAGAGACAAGGGUGUGAAGAAGGGACUAGCG [Omei Ex5 A1] (Eterna round: R97, puzzle: Exclusion 5)
188

Give recorded apparent KD of MS2 coat protein. AAUUAGUAUGUGAGGAUAUUGAUGAGAUGAUGGUUUAAGAAGGCACAUGAGGAUCACCCAUGUAGGAAAUAACG [JR_BMEx4_Sub005] (Eterna round: R97, puzzle: Brourd's mod of Exclusion 4)
37.8

Give recorded apparent KD of MS2 coat protein. CAGUACUGAGGAUAUACAUGAGGAUCACCCAUGUGUGUGAGUUUUGGAUGAAUGUUAUGUAGAAGGCGGUGCUG [JR_Ex3_Sub036] (Eterna round: R97, puzzle: Exclusion 3)
179

Give recorded apparent KD of MS2 coat protein. GUCAGCUCGUGAGGAUAUACAUGCGUGCUUCGGCACGUAUGAUAGAUCACAUGAGGAUCACCCAUGUAGAAGGCACGAGCUGAC [ENG2/4-A1] (Eterna round: R96, puzzle: Exclusion NG 2)
18.8

Give recorded apparent KD of MS2 coat protein. UUUACAAGCUUUAGAUCCCACAUGAGGAUCACCCAUGUUGCUGCCGGUGACGGUAGCAUAACUAAUGCUCGUCUUAU [JL TOV1 3.62] (Eterna round: R97, puzzle: Sensor, turn-off variant 1)
123

Give recorded apparent KD of MS2 coat protein. GGUUUGGGAGGAUAUGGUUUUAAUAACAUGAGGAUCACCCAUGUAAAUAGAUCCUCAAGGCCAGAAGGCUCGGGCC [-24.9, -24.02 kcal, A 29%] (Eterna round: R97, puzzle: Exclusion 5)
508

Give recorded apparent KD of MS2 coat protein. UUUUAACAUGAGGAUCACCCAUGUGAGGAUAUGGUUUUUUUUUUUUUUUUUUUUUUUUCCAGAAGGCACAUUUU [My solution] (Eterna round: R96, puzzle: Exclusion 1)
269

Give recorded apparent KD of MS2 coat protein. CCAGCGGACAAAGGAUAUUGCGGUGGCCGGCUCGGCGUACCGAGCCUACAUGAGGAUCACCCAUGUAAGAAGGUUGUCGUAGGA [Mat - Exclusion NG 2 - Mod of JL - D72] (Eterna round: R96, puzzle: Exclusion NG 2)
72.2

Give recorded apparent KD of MS2 coat protein. UAUAUGUCAGGAUAUUAGUAGUAAAUGAAUAAAAUUAUUACUGAGAAGGGACAUGAGGAUCACCCAUGUGCCUC [Mat - Exclusion 4 - Eli Mod - D24] (Eterna round: R97, puzzle: Exclusion 4)
387

Give recorded apparent KD of MS2 coat protein. AAACGGCAGGGAGGAUAUGCCUACCUGGGUCGUCUUCAAACAUGAGGAUCACCCAUGUAGUCGACGCAGAAGGCCCUCAAAGCC [Ontiis] (Eterna round: R96, puzzle: Exclusion NG 2)
38.7

Give recorded apparent KD of MS2 coat protein. AUCAUGGACGCAGGAUAUACAUGAGGAUCACCCAUGUAGUAUGAUCAGUGAUGGUCGUCGAUAGUGUAGAAGGGCGGCUAGUAG [random] (Eterna round: R96, puzzle: Exclusion NG 2)
34.4

Give recorded apparent KD of MS2 coat protein. UUUAUAUAGUAAGGAUAUGUAUUAUUGUUAUCAACAGAAGGUACUGACAUGAGGAUCACCCAUGUUUUAGUGUGGGCAUGUAGU [JMF's solution 96] (Eterna round: R96, puzzle: Exclusion NG 1)
425

Give recorded apparent KD of MS2 coat protein. AGCUCUGCAGGAUAUGCCCGGGAUAACAUGAGGAUCACCCAUGUGACUGAUUGUUAUUCUGCAGAAGGGCAUGGGA [JL-EX5-4.15 ViennaUCT mod] (Eterna round: R97, puzzle: Exclusion 5)
409

Give recorded apparent KD of MS2 coat protein. GUAAAACAUGAGGAUCACCCAUGUCAGGAUAUACGAUUCCACCCUAACUGCGUGGAACGUAGAAGGGACAUAGG [Exclusion 1 (MOD6.1 Esqu)] (Eterna round: R97, puzzle: Exclusion 1)
57.9
